Can you tell me EC50 for the items I'm about to list?
- System: CEM cells HIV-1 protection, formazan growth assay
- EXPERIMENT_DESCRIPTION: NCI AIDS Antiviral Assay

COC(=O)[C@H]1C[C@H]1NC(=O)C(CC(=O)OCc1ccccc1)NC(=O)OCc1ccccc1 (some centres undefined): > 200 µM
O=Cc1c(O)c(C(=O)Nc2ccc3[nH]c(=O)[nH]c3c2)cc2ccccc12: > 38.9 µM
CCC1C2C=CC(CC2)N1S(=O)(=O)c1ccc(C)cc1 (centres undefined): > 64.6 µM
CC1=C(c2cc(C(=O)Nc3ccc(Cl)c(Cl)c3)nc(N)n2)Sc2ccccc2N1: > 81.3 µM
O=C(c1ccco1)N(C(=S)N1CCN(c2ccccc2)CC1)C1CCCCC1: > 18.2 µM
COC1O[C@H]2CCN(C(=O)OCc3ccccc3)[C@H]2[C@H]1OCc1ccccc1 (some centres undefined): > 35.5 µM
CCn1c(CSc2nc(-c3ccccc3)c(-c3ccccc3)[nH]2)n[nH]c1=S: > 91.2 µM
NNS(=O)(=O)c1ccc(OCC(=O)O)cc1: > 200 µM

Could you tell me EC50 for each of these compounds? They are listed below.
1. Nc1nnc(-c2ccccc2O)o1
2. Nc1cc(=O)[nH]c(=S)n1-c1ccc(Cl)cc1
3. COc1ccc(-c2cc(=O)c3c(O)cc(O)cc3o2)cc1
4. O=[N+]([O-])c1ccc(C2Nc3cc(Cl)c(Cl)cc3S(=O)(=O)N2O)cc1 (centres undefined)
5. O=[N+]([O-])c1ccc(N=Nc2ccc(O)c3c(O)cc(S(=O)(=O)O)cc23)cc1S(=O)(=O)O
6. NC(=S)NN=C1CSSC1

1: > 200 µM; 2: > 200 µM; 3: > 105 µM; 4: > 93.3 µM; 5: > 100 µM; 6: > 200 µM

====

Please provide measured pEC50 for the entries that follow.
- Tested on: CEM cells HIV-1 protection, formazan growth assay
- EXPERIMENT_DESCRIPTION: NCI AIDS Antiviral Assay
- Protocol: The ability of compounds to protect human CEM cells from HIV-1 infection is measured as a screen for new compounds capable of inhibiting the HIV virus. Five concentrations of drug were tested on uninfected and infected cells and cell growth was measured using a soluble formazan assay. […] Compounds that provided at least 50% protection were retested. Compounds that provided at least 50% protection on retest were listed as moderately active. […]
pEC50: −log10 of the molar value.

Examples from the recorded data:
c1ccc2c(CC[n+]3cccc(C4OCCO4)c3)c[nH]c2c1: < 3.18
O=C(Nc1ccccc1)c1cc(S(=O)(=O)NC2=NC(c3ccccc3)c3cc(Cl)ccc3N2)c(SSc2cc(Cl)c(C(=O)Nc3ccccc3)cc2S(=O)(=O)NC2=NC(c3ccccc3)c3cc(Cl)ccc3N2)cc1Cl (stereo unspecified): < 3.70
Nc1nc(NCC2(CO)CC(CCc3ccccc3)C2)cc(=O)[nH]1 (stereo unspecified): < 3.70
O=C(c1ccccc1)c1c2ccccn2c2cccc[n+]12: < 3.70
Cc1cc2c(cc1Cl)S(=O)(=O)OC(c1ccc([N+](=O)[O-])cc1)=N2: < 3.70

Now for the compound whose pEC50 we want.
Need pEC50, item COC(=O)C1(C)OC(C)=NC1(C(=O)OC)C(=O)OC (stereo unspecified)
< 3.70
